targetOfAssay: CGRP1 receptor (CRLR/RAMP1 complex) of human neuroblastoma SK-N-MC cells (human, UniProt Q16602 23-461; O60894 27-148)
Sequence (Q16602 23-461, chain 1 of 2): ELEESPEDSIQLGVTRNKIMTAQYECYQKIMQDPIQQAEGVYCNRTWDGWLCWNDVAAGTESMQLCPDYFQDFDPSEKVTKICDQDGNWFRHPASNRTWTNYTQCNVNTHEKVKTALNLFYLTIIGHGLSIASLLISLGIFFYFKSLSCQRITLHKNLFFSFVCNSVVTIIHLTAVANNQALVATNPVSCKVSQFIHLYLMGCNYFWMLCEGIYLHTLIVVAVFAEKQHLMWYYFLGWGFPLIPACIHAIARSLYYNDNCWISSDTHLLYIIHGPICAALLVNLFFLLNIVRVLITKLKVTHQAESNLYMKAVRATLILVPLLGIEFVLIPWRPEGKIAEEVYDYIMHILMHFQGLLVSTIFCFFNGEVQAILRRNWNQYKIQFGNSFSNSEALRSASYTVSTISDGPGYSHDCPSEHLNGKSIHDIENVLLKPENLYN
Sequence (O60894 27-148, chain 2 of 2): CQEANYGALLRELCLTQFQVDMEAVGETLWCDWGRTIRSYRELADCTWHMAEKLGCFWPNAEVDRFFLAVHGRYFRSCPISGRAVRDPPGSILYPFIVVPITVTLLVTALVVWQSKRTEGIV
protocolSummary: cell-based or functional assay
Square brackets hold non-standard residues; d marks the D form. Cit = NC(=O)NCCC[C@H](N)C(=O)O
readout: IC50
# number then unit; no other words

binder="Ac-WVTHQLAGLLSQSGGVVRK(20 kDa MeO‑PEG)NFVPTDVGPFAF-NH2 [SEQ ID NO 817]" recordedmeasurement="5.24 nM"
binder="Ac-WVTH[Cit]LAGLAS[Cit]SGGVVRKNFVPTDVGPFAF-NH2 [SEQ ID NO 852]" recordedmeasurement="23.4 nM"
binder="WVTHXLAGLLSRSGGVVRKNFVPTDVGPFAF (Ac-WVTH[Cit]LAGLLSRSGGV VRK^(20 kDa MeO-PEG)NFVPTDVGPFAF-amide) [SEQ ID NO 799]" recordedmeasurement="2.08 nM"
binder="WVTHRLAGLLSXSGGVVRKNFVPTDVGPFAF (Ac-WVTHRLAGLLS[Cit]SGG VVRK^(20 kDa MeO-PEG)NFVPTDVGPFAF-amide) [SEQ ID NO 797]" recordedmeasurement="0.96 nM"
binder="Ac-WVTHRLAGLLSRSGGVVRC(20 kDa NEM‑PEG)NFVPTDVGPFAF-NH2 [SEQ ID NO 771]" recordedmeasurement="0.3 nM"

Item: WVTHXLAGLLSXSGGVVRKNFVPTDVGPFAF (Ac-WVTH[hArg]LAGLLS[hArg]SGGVVRKNFVPTDVGPFAF-amide) [SEQ ID NO 784] | IC50: 2.1 nM
